Test system: Rattus norvegicus
Assay text: Number of rats protected at a dose of 30 mg/Kg when given oral at 0.5 hr upon maximal electroshock seizure; Total number of rats = 4
Format: functional
Attribute measured: Activity
Numbers only.

Solved cases (5 shown):
smiles_notation=COc1cc(/C=N/NC(=O)Nc2c(C)cccc2C)ccc1O attribute_measured=Activity measured_number=3
smiles_notation=Cc1cccc(C)c1NC(=O)N/N=C/c1ccc(N(C)C)cc1 attribute_measured=Activity measured_number=2
smiles_notation=Cc1cccc(C)c1NC(=O)/N=N/c1c(O)[nH]c2ccc(Br)cc12 attribute_measured=Activity measured_number=1
smiles_notation=Cc1cccc(C)c1NC(=O)N/N=C/c1ccccc1[N+](=O)[O-] attribute_measured=Activity measured_number=2
smiles_notation=Cc1cccc(C)c1NC(=O)NN=C(Cc1ccccc1)Cc1ccccc1 attribute_measured=Activity measured_number=1

Now for the compound whose Activity we want.
In: Reported Activity for Cc1cccc(C)c1NC(=O)NN=C1CCCC1 : what is it?
Out: 2

* * *

Test system: Rattus norvegicus
Assay text: Number of rats protected at a dose of 30 mg/Kg when given oral at 0.5 hr upon maximal electroshock seizure; Total number of rats = 4
Type: functional
Attribute measured: Activity

Solved cases (5 shown):
smiles_notation=C/C(CC(C)C)=N/NC(=O)Nc1c(C)cccc1C system_tested="Rattus norvegicus" result=2
smiles_notation=C/C(=N\NC(=O)Nc1c(C)cccc1C)c1ccccc1O system_tested="Rattus norvegicus" result=1
smiles_notation=Cc1cccc(C)c1NC(=O)N/N=C\c1ccco1 system_tested="Rattus norvegicus" result=2
smiles_notation=O=C1NC(=O)C(c2ccccc2)(c2ccccc2)N1 system_tested="Rattus norvegicus" result=4
smiles_notation=Cc1cccc(C)c1NC(=O)NN=C1CCCCC1 system_tested="Rattus norvegicus" result=1

Provide Activity for all items below, preserving their order.
1. C/C(=N\NC(=O)Nc1c(C)cccc1C)c1ccc([N+](=O)[O-])cc1
2. CC/C(C)=N\NC(=O)Nc1c(C)cccc1C
3. Cc1cccc(C)c1NC(=O)/N=N/c1c(O)[nH]c2ccccc12
4. C/C(=N\NC(=O)Nc1c(C)cccc1C)c1cccc(N)c1
5. Cc1cccc(C)c1NC(=O)N/N=C/c1ccc([N+](=O)[O-])cc1
6. C/C(=N\NC(=O)Nc1c(C)cccc1C)c1ccccc1
7. Cc1ccc(/C=N/NC(=O)Nc2c(C)cccc2C)cc1
8. Cc1cccc(C)c1NC(=O)NN=C(c1ccccc1)c1ccccc1

Out:
1: 2; 2: 4; 3: 2; 4: 3; 5: 1; 6: 2; 7: 2; 8: 1

* * *

Test system: Rattus norvegicus
Assay text: Number of rats protected at a dose of 30 mg/Kg when given oral at 0.5 hr upon maximal electroshock seizure; Total number of rats = 4
Type: functional
Give measured Activity for each item. Keep answers brief.
Answers are plain numbers.

smiles_notation=Cc1cccc(C)c1NC(=O)N/N=C/c1ccccc1O measured_number=3

Provide Activity for all items below, preserving their order.
1. Cc1cccc(C)c1NC(=O)N/N=C/c1ccccc1
2. C/C(=N\NC(=O)Nc1c(C)cccc1C)c1ccc(N)cc1

Out:
1. 3
2. 3

* * *

Tested on: Rattus norvegicus
Assay text: Number of rats protected at a dose of 30 mg/Kg when given oral at 0.5 hr upon maximal electroshock seizure; Total number of rats = 4
Format: functional
Attribute measured: Activity

Solved cases (2 shown):
smiles_notation=CC(=O)C/C(C)=N\NC(=O)Nc1c(C)cccc1C result=4
smiles_notation=C/C(=N\NC(=O)Nc1c(C)cccc1C)c1ccc(O)cc1 result=2

Now for the compound whose Activity we want.
In: Reported Activity for CC(C)=NNC(=O)Nc1c(C)cccc1C : what is it?
Out: 4

Numbers sourced from ChEMBL document CHEMBL1141099.
